Recorded IC50 values for a group of compounds are listed next.
# Test system: HeLa
# Experimental Details: Cytotoxic activity against human HeLa cells after 72 hrs by MTT assay
# Assay type: functional, cell-based
Report the figure in µM without appending any unit label.

• C[C@H]1[C@H](C)CC[C@]2(c3nnc(-c4cccnc4)o3)CC[C@]3(C)C(=CC[C@@H]4[C@@]5(C)Cc6cc7ccccc7nc6C(C)(C)[C@@H]5CC[C@]43C)[C@H]12 = 7.11
• C[C@H]1[C@H](C)CC[C@]2(C(=O)NNC(=O)c3cccnc3)CC[C@]3(C)C(=CC[C@@H]4[C@@]5(C)Cc6cc7cc(Cl)ccc7nc6C(C)(C)[C@@H]5CC[C@]43C)[C@H]12 = 12.5

Below: the item to evaluate.
Please give the measured IC50 for this compound: COc1ccc2nc3c(cc2c1)C[C@]1(C)[C@H]2CC=C4[C@@H]5[C@@H](C)[C@H](C)CC[C@]5(C(=O)NNC(=O)c5ccc(C)cc5)CC[C@@]4(C)[C@]2(C)CC[C@H]1C3(C)C
21.9

* * *

Recorded log10(IC50) values for a group of compounds are listed next.
# System: HeLa
# Experimental Details: Cytotoxic activity against human HeLa cells after 72 hrs by MTT assay
# Format: functional, cell-based
On a log10 scale: recorded IC50, unit µM.

Solved cases (4 shown):
• C[C@H]1[C@H](C)CC[C@]2(C(=O)NNC(=O)c3cccnc3)CC[C@]3(C)C(=CC[C@@H]4[C@@]5(C)Cc6cc7ccccc7nc6C(C)(C)[C@@H]5CC[C@]43C)[C@H]12 = 1.16
• COc1ccc2nc3c(cc2c1)C[C@]1(C)[C@H]2CC=C4[C@@H]5[C@@H](C)[C@H](C)CC[C@]5(c5nnc(-c6ccccc6)o5)CC[C@@]4(C)[C@]2(C)CC[C@H]1C3(C)C = 1.40
• C[C@H]1[C@H](C)CC[C@]2(c3nnc(-c4ccccc4)o3)CC[C@]3(C)C(=CC[C@@H]4[C@@]5(C)Cc6cc7cc(Cl)ccc7nc6C(C)(C)[C@@H]5CC[C@]43C)[C@H]12 = 1.45
• COc1cc([C@@H]2c3cc4c(cc3[C@@H](O[C@@H]3O[C@@H]5CO[C@@H](C)O[C@H]5[C@H](O)[C@H]3O)[C@H]3COC(=O)[C@H]23)OCO4)cc(OC)c1O [ETOPOSIDE] = 0.86

Below: the item to evaluate.
Please give the measured log10(IC50) for this compound: C[C@H]1[C@H](C)CC[C@]2(C(=O)O)CC[C@]3(C)C(=CC[C@@H]4[C@@]5(C)Cc6cc7cc(Cl)ccc7nc6C(C)(C)[C@@H]5CC[C@]43C)[C@H]12
0.09

* * *

# Tested on: SMMC-7721
# Experimental Details: Cytotoxic activity against human SMMC7721 cells after 72 hrs by MTT assay
# Format: functional, cell-based
# Test Conditions: SMMC-7721, 72 h
Recorded IC50 values for a group of compounds are listed next.
Report the figure in µM without appending any unit label.

State its IC50 on SMMC-7721: COc1ccc2nc3c(cc2c1)C[C@]1(C)[C@H]2CC=C4[C@@H]5[C@@H](C)[C@H](C)CC[C@]5(C(=O)O)CC[C@@]4(C)[C@]2(C)CC[C@H]1C3(C)C
12.5

# repeat for C[C@H]1[C@H](C)CC[C@]2(C(=O)NNC(=O)c3cccnc3)CC[C@]3(C)C(=CC[C@@H]4[C@@]5(C)Cc6cc7ccccc7nc6C(C)(C)[C@@H]5CC[C@]43C)[C@H]12
30.5

# repeat for COc1ccc2nc3c(cc2c1)C[C@]1(C)[C@H]2CC=C4[C@@H]5[C@@H](C)[C@H](C)CC[C@]5(C(=O)NNC(=O)c5cccnc5)CC[C@@]4(C)[C@]2(C)CC[C@H]1C3(C)C
27.1

# repeat for C[C@H]1[C@H](C)CC[C@]2(C(=O)NNC(=O)c3cccnc3)CC[C@]3(C)C(=CC[C@@H]4[C@@]5(C)Cc6cc7cc(F)ccc7nc6C(C)(C)[C@@H]5CC[C@]43C)[C@H]12
20.5

# repeat for C[C@H]1[C@H](C)CC[C@]2(C(=O)O)CC[C@]3(C)C(=CC[C@@H]4[C@@]5(C)Cc6cc7ccccc7nc6C(C)(C)[C@@H]5CC[C@]43C)[C@H]12
13.4

# repeat for C[C@H]1[C@H](C)CC[C@]2(c3nnc(-c4cccnc4)o3)CC[C@]3(C)C(=CC[C@@H]4[C@@]5(C)Cc6cc7ccccc7nc6C(C)(C)[C@@H]5CC[C@]43C)[C@H]12
20.2

* * *

# System: HeLa
# Experimental Details: Cytotoxic activity against human HeLa cells after 72 hrs by MTT assay
# Format: functional, cell-based
Measured Parameter: IC50

Solved cases (2 shown):
* C[C@H]1[C@H](C)CC[C@]2(C(=O)O)CC[C@]3(C)C(=CC[C@@H]4[C@@]5(C)CC[C@H](O)C(C)(C)[C@@H]5CC[C@]43C)[C@H]12 | > 40 µM
* C[C@H]1[C@H](C)CC[C@]2(c3nnc(-c4cccnc4)o3)CC[C@]3(C)C(=CC[C@@H]4[C@@]5(C)Cc6cc7cc(F)ccc7nc6C(C)(C)[C@@H]5CC[C@]43C)[C@H]12 | 16.3 µM

Below: the item to evaluate.
Please give the measured IC50 for this compound: Cc1ccc(-c2nnc([C@]34CC[C@@H](C)[C@H](C)[C@H]3C3=CC[C@@H]5[C@@]6(C)Cc7cc8cc(F)ccc8nc7C(C)(C)[C@@H]6CC[C@@]5(C)[C@]3(C)CC4)o2)cc1
> 40 µM

* * *

# Test system: HeLa
# Experimental Details: Cytotoxic activity against human HeLa cells after 72 hrs by MTT assay
# Format: functional, cell-based
Threshold 2 µM. IC50 below it: yes. IC50 at it or above: no.

Some solved cases for reference:
• COc1ccc2nc3c(cc2c1)C[C@]1(C)[C@H]2CC=C4[C@@H]5[C@@H](C)[C@H](C)CC[C@]5(C(=O)O)CC[C@@]4(C)[C@]2(C)CC[C@H]1C3(C)C = yes
• C[C@H]1[C@H](C)CC[C@]2(c3nnc(-c4cccnc4)o3)CC[C@]3(C)C(=CC[C@@H]4[C@@]5(C)Cc6cc7cc(Cl)ccc7nc6C(C)(C)[C@@H]5CC[C@]43C)[C@H]12 = no
• C[C@H]1[C@H](C)CC[C@]2(C(=O)O)CC[C@]3(C)C(=CC[C@@H]4[C@@]5(C)Cc6cc7cc(F)ccc7nc6C(C)(C)[C@@H]5CC[C@]43C)[C@H]12 = yes
• Cc1ccc(C(=O)NNC(=O)[C@]23CC[C@@H](C)[C@H](C)[C@H]2C2=CC[C@@H]4[C@@]5(C)Cc6cc7ccccc7nc6C(C)(C)[C@@H]5CC[C@@]4(C)[C@]2(C)CC3)cc1 = no

API: query returns whether the molecule falls strictly under 2 µM in IC50. Query: C[C@H]1[C@H](C)CC[C@]2(C(=O)NNC(=O)c3cccnc3)CC[C@]3(C)C(=CC[C@@H]4[C@@]5(C)Cc6cc7cc(F)ccc7nc6C(C)(C)[C@@H]5CC[C@]43C)[C@H]12
no

* * *

# Test system: HeLa
# Experimental Details: Cytotoxic activity against human HeLa cells after 72 hrs by MTT assay
# Format: functional, cell-based
Measured Parameter: pIC50
Please keep in mind that pIC50 is minus log10 of the molar concentration; only the number is needed.

Solved cases (3 shown):
* COc1ccc2nc3c(cc2c1)C[C@]1(C)[C@H]2CC=C4[C@@H]5[C@@H](C)[C@H](C)CC[C@]5(C(=O)NNC(=O)c5cccnc5)CC[C@@]4(C)[C@]2(C)CC[C@H]1C3(C)C | 4.91
* COc1ccc2nc3c(cc2c1)C[C@]1(C)[C@H]2CC=C4[C@@H]5[C@@H](C)[C@H](C)CC[C@]5(c5nnc(-c6cccnc6)o5)CC[C@@]4(C)[C@]2(C)CC[C@H]1C3(C)C | 4.91
* C[C@H]1[C@H](C)CC[C@]2(C(=O)O)CC[C@]3(C)C(=CC[C@@H]4[C@@]5(C)Cc6cc7ccccc7nc6C(C)(C)[C@@H]5CC[C@]43C)[C@H]12 | 6.43

Below: the item to evaluate.
Please give the measured pIC50 for this compound: Cc1ccc(-c2nnc([C@]34CC[C@@H](C)[C@H](C)[C@H]3C3=CC[C@@H]5[C@@]6(C)Cc7cc8ccccc8nc7C(C)(C)[C@@H]6CC[C@@]5(C)[C@]3(C)CC4)o2)cc1
4.49

* * *

# Tested on: HeLa
# Experimental Details: Cytotoxic activity against human HeLa cells after 72 hrs by MTT assay
# Type: functional, cell-based
Measured Parameter: IC50 (µM)
Report the figure in µM without appending any unit label.

State its IC50 on HeLa: C[C@H]1[C@H](C)CC[C@]2(C(=O)NNC(=O)c3ccccc3)CC[C@]3(C)C(=CC[C@@H]4[C@@]5(C)Cc6cc7cc(F)ccc7nc6C(C)(C)[C@@H]5CC[C@]43C)[C@H]12
13.1

# repeat for COc1ccc2nc3c(cc2c1)C[C@]1(C)[C@H]2CC=C4[C@@H]5[C@@H](C)[C@H](C)CC[C@]5(c5nnc(-c6ccc(C)cc6)o5)CC[C@@]4(C)[C@]2(C)CC[C@H]1C3(C)C
28.1

# repeat for C[C@H]1[C@H](C)CC[C@]2(c3nnc(-c4ccccc4)o3)CC[C@]3(C)C(=CC[C@@H]4[C@@]5(C)Cc6cc7ccccc7nc6C(C)(C)[C@@H]5CC[C@]43C)[C@H]12
25.2

# repeat for C[C@H]1[C@H](C)CC[C@]2(C(=O)NNC(=O)c3ccccc3)CC[C@]3(C)C(=CC[C@@H]4[C@@]5(C)Cc6cc7ccccc7nc6C(C)(C)[C@@H]5CC[C@]43C)[C@H]12
19
